# Assay system: Glycogen synthase kinase-3 beta (Homo sapiens) (UniProt P49841)
# Sequence (P49841 whole entry, looked up): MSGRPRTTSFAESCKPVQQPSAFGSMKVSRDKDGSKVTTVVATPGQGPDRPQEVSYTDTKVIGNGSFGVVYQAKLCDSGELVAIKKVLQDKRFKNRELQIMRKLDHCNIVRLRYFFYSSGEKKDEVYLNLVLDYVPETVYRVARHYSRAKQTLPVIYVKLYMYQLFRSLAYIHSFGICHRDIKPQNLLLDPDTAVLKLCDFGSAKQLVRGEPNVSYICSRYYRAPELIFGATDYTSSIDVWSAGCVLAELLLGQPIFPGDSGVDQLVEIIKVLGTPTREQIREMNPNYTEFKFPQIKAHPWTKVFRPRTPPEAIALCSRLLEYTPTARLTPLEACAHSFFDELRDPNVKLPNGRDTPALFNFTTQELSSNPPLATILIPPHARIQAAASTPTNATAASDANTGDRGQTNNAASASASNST
# Assay setup: Compound concentration 20.0 uM, Protein concentration 2.0 uM, Result type QC Liability
# Description: Thermal Shift Assay. Domain: start/stop: M26-R383

Molecule	ΔTm
Cc1nn(-c2nc3ccc(Cl)c(Cl)c3[nH]2)c(O)c1C1OC(=O)c2ccccc21 (centres undefined)	0.53 °C
COc1cc(Nc2cnc(C#N)c(O[C@H](C)CN(C)C)n2)ncc1-c1cnn(C)c1	3.03 °C
CN1Cc2nccc(-c3cn(C)nc3-c3ccc(F)cc3)c2C1=O	-0.07 °C
Cc1ncsc1-c1ccc(CNC(=O)[C@@H]2C[C@H](O)CN2C(=O)[C@@H](NC(=O)C2(F)CC2)C(C)(C)C)c(OCCOc2ccc(CN3CCN(c4cc(-c5ccccc5O)nnc4N)CC3)cc2)c1 (relative stereo)	0.29 °C

---

Item-by-item account of ΔTm
# Assay system: Glycogen synthase kinase-3 beta (Homo sapiens)
# Assay setup: Compound concentration 20.0 uM, Protein concentration 2.0 uM, Result type QC Liability
Numbered stars: 1 amine (or outer) side, 2 acyl side, 3 side chain; on linkers, the order of the positions; unused ones are H or OH. Bridge positions count the residues as written; N and C are the ends. Square brackets hold non-standard residues; d marks the D form. Peptide text beside a SMILES is read from it. I, II: the chains in the order shown. Hexamethylenediamine = C(CCCN[*:2])CCN[*:1]; Dip = N[C@H](C(=O)O)C(c1ccccc1)c1ccccc1; Chg = N[C@H](C(=O)O)C1CCCCC1; NMeA = CN[C@@H](C)C(=O)O
Quantity name: ΔTm (°C)

Compound	Experimental value
Cc1nc2cccnc2n2c(-c3cc(C(C)(C)O)ncc3Cl)nnc12	-0.45
CCOC(=O)Nc1ccc2c(c1)N(C(=O)CN(CC)CC)c1ccccc1CC2	-0.12
O=C(Nc1ccc(N2CCC(C(=O)N3CCOCC3)CC2)cc1)c1cnc(Oc2ccccc2)nc1	-0.13
O=C1CCCc2[nH]c(-c3ccnc(NCC4CC4)c3)c(Nc3ccccc3)c21	1.37
COCCOCn1c(S(C)(=O)=O)nc2c1c(=O)n(C)c(=O)n2C	-0.24
Clc1ccccc1C(c1ccccc1)(c1ccccc1)n1ccnc1	-2.38
CC(C)(C[C@H]1CN(S(=O)(=O)c2cccc(C(F)(F)F)c2)c2cc(-c3cc(F)cc(OC(F)F)c3)ccc2O1)C(=O)O	-2.26
O=C(O)CCC/C=C\C[C@@H]1[C@@H](/C=C/[C@@H](O)COc2cccc(C(F)(F)F)c2)[C@H](O)C[C@@H]1O	0.65
NC(=O)c1ccccc1Nc1nc(-c2ccc(N3CCOCC3)cc2)cc2ncccc12	2.43
CN(C)[C@H]1CCc2nc(NC(=O)c3cccc(Cn4cc(-c5ccc(C#N)cc5)cn4)c3)sc2C1	0.72
Cc1ccc(NC(=O)c2ccc(CN3CC[C@H](N(C)C)C3)c(C(F)(F)F)c2)cc1Nc1nccc(-c2cncnc2)n1	0.08
CC(=O)N1CCC(c2ccc(C(=O)NC3=NCCN3)cc2C(F)(F)F)CC1	-0.03
COc1ccc2c(O[C@@H]3C[C@H]4C(=O)N[C@]5(C(=O)NS(=O)(=O)C6(C)CC6)CC5/C=C\CCCCC[C@H](NC(=O)c5ccn(C)n5)C(=O)N4C3)cc(OC(C)C)nc2c1C (some centres undefined)	-4.13
COc1cc(-c2cn(C)c(=O)c3cnccc23)cc(OC)c1CN(C)C	0.06
CC(C)C(=O)N[C@@H]1CCN(C(=O)Nc2nc3c(s2)-c2nc(-c4ccccc4Cl)ncc2CC3)C1	0.38
O=C(N[C@H](Cc1ccccc1)C(=O)O)c1cccc(OCc2cccnc2)c1	0.45
CN(C)C(=O)c1cc2cnc(Nc3ccc(N4CCN(CCCCNC(=O)COc5cccc6c5C(=O)N(C5CCC(=O)NC5=O)C6=O)CC4)cn3)nc2n1C1CCCC1 (centres undefined)	-0.75
CN(C)C(=O)Cn1cc(-c2ccc(-c3cncc4ccccc34)cc2)cn1	0.72
Cn1nc(-c2ccc(C(N)=O)cc2)c2ccccc2c1=O	-0.19
FC(F)c1cncc(-c2ccc3ncc4nnc(C5=CCCOCC5)n4c3c2)c1	2.58
CC(C)C(=O)N1CCC(c2cn(C)c3ncc(NC(=O)c4cccc(C#N)c4)c(C(F)(F)F)c23)CC1	-0.4
CN[C@@H](C)C(=O)N[C@H](C(=O)N1CCC[C@H]1C(=O)N[C@@H]1CCCc2ccccc21)C1CCCCC1	-0.99
CN(C)CC#Cc1ccc2[nH]c3c(c2c1)-c1nc(N)ncc1CCC3	0.06
CC(C)[C@H](CO)Nc1nc(Nc2ccc(C(=O)O)c(Cl)c2)c2ncn(C(C)C)c2n1	2.37
COc1cc(-c2nn([C@H]3CC[C@H](N4CCN(C(C)=O)CC4)CC3)c3ncnc(N)c23)ccc1NC(=O)c1cc2ccccc2n1C	0
N[C@@H](CC(=O)O)Cn1nnc(-c2ccc(Oc3ncc(Cl)cc3F)cc2)n1	0.34
CN[C@@H](C)C(=O)N[C@H](C(=O)N1CCC[C@H]1C(=O)N[C@H](C(=O)NCCCCCCNC(=O)[C@@H](NC(=O)[C@@H]1CCCN1C(=O)[C@@H](NC(=O)[C@H](C)NC)C1CCCCC1)C(c1ccccc1)c1ccccc1)C(c1ccccc1)c1ccccc1)C1CCCCC1 (I: H-[NMeA][Chg]P[Dip] / II: H-[NMeA][Chg]P[Dip]; linker I:C-II:C via Hexamethylenediamine)	-0.94
CN(C)CCCN1c2ccccc2Sc2ccc(Cl)cc21	-0.47
CN1CCC(F)(Cn2cnc(-c3ccc(F)cn3)c2-c2ccnc3[nH]ccc23)CC1	-0.54
O=C(NCc1ccc(F)cc1)C1CCN(S(=O)(=O)c2cc(Cl)cc(Cl)c2)CC1	-0.45
CCCN1C(=O)c2ccc(Cl)cc2Nc2ncccc21	0.22
COc1ccc(CSc2nnc(-c3ccc4ncsc4c3)o2)cc1C(F)(F)F	-9.01
CCOCCn1cc(C(=O)Nc2ccc(-n3nc(-c4cccnc4)cc3C(F)(F)F)cn2)ccc1=O	-0.71
